Assay Text: amyloid nucleation score (Sup35N fusion, yeast selection) (log enrichment); library NNK3; higher = more nucleation; inactive = no reads after selection;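 further: zero at mode of non-aggregating sequences after 7 days selection at 30°C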

- Substance: "FSCIPCG"
  amyloid nucleation score: "inactive"
- Substance: "CILYYLNSSMVIGTCLFILN"
  amyloid nucleation score: 1.36
- Substance: "LDKFHCRFYMQNSN"
  amyloid nucleation score: "inactive"
- Substance: "GEKCGRSRI"
  amyloid nucleation score: "inactive"
- Substance: "LWVCNRGGTPTSVSSESRRE"
  amyloid nucleation score: -0.187
- Substance: "VESVRVLVINPNSDNQVLYL"
  amyloid nucleation score: "inactive"
- Substance: "AQILSYVVSYSDPERHFSVM"
  amyloid nucleation score: "inactive"
- Substance: "MPWMVATSNM"
  amyloid nucleation score: "inactive"
- Substance: "AIFFSFYRSFY"
  amyloid nucleation score: 1.86
- Substance: "NRFLNIQKRSTPLNLPSSSV"
  amyloid nucleation score: "inactive"
- Substance: "VLSSWTIK"
  amyloid nucleation score: "inactive"
- Substance: "HSLWRLGYYM"
  amyloid nucleation score: 0.912

---

Reported amyloid nucleation score values for a set of substances
Assay Text: amyloid nucleation score (Sup35N fusion, yeast selection) (log enrichment); library NNK1; higher = more nucleation; inactive = no reads after selection
Measured Endpoint: amyloid nucleation score

- Substance: "CSRNTSVA"
  Recorded Value: 1.01
- Substance: "LNLRGDRN"
  Recorded Value: 0.304
- Substance: "RRILGRYRC"
  Recorded Value: -0.129
- Substance: "DACIGWVRYRSILCCMVLVA"
  Recorded Value: -0.005
- Substance: "LYHGVYPKFLYKLVVESSLS"
  Recorded Value: -1.79
- Substance: "SMFCARLDTRVSRTGFPDRG"
  Recorded Value: -0.557
- Substance: "TDQCGWGTVRRSAETSLGQL"
  Recorded Value: 0.77
- Substance: "RYFSWFYVN"
  Recorded Value: -0.089
- Substance: "RFFYWG"
  Recorded Value: 0.375
- Substance: "RWGMFTWVYFMLYALWIMTL"
  Recorded Value: 0.042
- Substance: "RVTPISCKYVLLTPMRLKNR"
  Recorded Value: 2.35
- Substance: "WVVCVIDEGSSTFFINI"
  Recorded Value: -0.556
- Substance: "VLIFWWIMKGRFWVMCSAGY"
  Recorded Value: 0.621
- Substance: "RRRRSDKDVYPFQSFMFNVV"
  Recorded Value: 0.476
- Substance: "VCLGLSQDLHKSYTVRSAT"
  Recorded Value: -0.009
- Substance: "NHFLRSNNKYLSWGKTYIAP"
  Recorded Value: -0.846
- Substance: "SIDWRAEMNSLSM"
  Recorded Value: -0.109
- Substance: "VLSRIHCCRTPVDNGFRPQG"
  Recorded Value: -0.95
- Substance: "PNDSYNGL"
  Recorded Value: -0.421
- Substance: "VYSMVFLMPCNRHDSFGRYS"
  Recorded Value: 6.58
- Substance: "WATLALSR"
  Recorded Value: 0.5
- Substance: "CHELLALDLLSMRNS"
  Recorded Value: 0.416
- Substance: "RSSSDKPSKTTTWRMLAGTG"
  Recorded Value: -0.113
- Substance: "PTSSGNATAWRNLNLLLCEL"
  Recorded Value: 0.328
- Substance: "WVWSLRLLGFNNLMDKATGF"
  Recorded Value: -0.312
- Substance: "ALAWWVLFL"
  Recorded Value: 0.132
- Substance: "SRVSLFGWSGFKFTSRDSWL"
  Recorded Value: 3.51
- Substance: "SVCMLPIDGMGEEVRVFPGV"
  Recorded Value: -0.641
- Substance: "VRNWWDDNYSFTHAYLSTDG"
  Recorded Value: 1.01
- Substance: "QGPVGVSYILHDFIIML"
  Recorded Value: 5.94
- Substance: "DSLSGSICGFRLYALLFTLT"
  Recorded Value: -0.113
- Substance: "TLRVIAVVDTFSRVYFR"
  Recorded Value: 3.58
- Substance: "SMLALGFPSVNCQWTGATFS"
  Recorded Value: 1.22
- Substance: "MNFDCFPNSL"
  Recorded Value: 1.22
- Substance: "CLETRYL"
  Recorded Value: 1.15
- Substance: "CWKLETYTSTDSQVGQANLK"
  Recorded Value: -1.28
- Substance: "LLTSIPRRVIARVSEGFCCN"
  Recorded Value: -0.311
- Substance: "RILRDQTWIPSMATDSILVC"
  Recorded Value: -1.23
- Substance: "MSDVCNVMKKVMQGTCFCGH"
  Recorded Value: -0.293
- Substance: "NMSGMVLGLVLTATWSFMSV"
  Recorded Value: 0.588
- Substance: "NSIPLDLSNTLLLCARC"
  Recorded Value: -0.02
- Substance: "LVGRSFSCEPRLYTFCEFCG"
  Recorded Value: 2.61
- Substance: "RSCLDGSRVMVSWR"
  Recorded Value: 0.305
- Substance: "MLARKRMLNLLLRGWAYSWT"
  Recorded Value: 0.09
- Substance: "FISHGRIVHGEDGAVLFVSG"
  Recorded Value: 0.277
- Substance: "SSRNRV"
  Recorded Value: -1.07
- Substance: "ALETFNGQVMSPSSRLRIDR"
  Recorded Value: -1.07
- Substance: "GMRLGTRSLQHQRWCAMLYL"
  Recorded Value: -1.37
- Substance: "LRLLSNVKWTKCS"
  Recorded Value: 0.367
- Substance: "HNELCFMFYSLGNCYGAGVG"
  Recorded Value: 5.03
- Substance: "RSEYAPRTNYK"
  Recorded Value: -0.237
- Substance: "FMLCNFLVVIYSGSR"
  Recorded Value: 5.82
- Substance: "VFLWDSHV"
  Recorded Value: -0.505
- Substance: "VSYSGQSLICYWVLEASFVV"
  Recorded Value: -0.05
- Substance: "KHDRHAKTTSLYRKPGKLRR"
  Recorded Value: 0.4
- Substance: "PSFNLNFVRINLQDGNMRLS"
  Recorded Value: 7.04
- Substance: "TFFYKDSDRDSCMGMLLIVC"
  Recorded Value: 0.295
- Substance: "LTFLYLYWNFNIYGIYGTTI"
  Recorded Value: 0.91
- Substance: "SLLDSEGVRYLIMEL"
  Recorded Value: 0.102
- Substance: "MSYIQRMGVYLTITGLRGMK"
  Recorded Value: -0.527

---

Assay Text: amyloid nucleation score (Sup35N fusion, yeast selection) (log enrichment); library NNK3; higher = more nucleation; inactive = no reads after selection

- Substance: "KNSASLFL"
  amyloid nucleation score: "inactive"
- Substance: "SAGACSV"
  amyloid nucleation score: "inactive"
- Substance: "VARGNMCNL"
  amyloid nucleation score: "inactive"
- Substance: "WLDWSAGHCGYVKLLW"
  amyloid nucleation score: "inactive"
- Substance: "CYSCSMLFISWLCRYRSTQY"
  amyloid nucleation score: 1.02
- Substance: "RSDCNGSSKYLISDHFP"
  amyloid nucleation score: "inactive"
- Substance: "YCGKCRAFCCQSCPIRVRLV"
  amyloid nucleation score: "inactive"
- Substance: "RPVKCSLYMTGQLQRLDGVN"
  amyloid nucleation score: 0.915
- Substance: "PPLYSRYLSFNGMTKVPWIC"
  amyloid nucleation score: "inactive"
- Substance: "VIKDYSQCMSWHGVESSWRL"
  amyloid nucleation score: -0.31
- Substance: "RSMSTGNH"
  amyloid nucleation score: "inactive"
- Substance: "NIGRNMLRCVNLTT"
  amyloid nucleation score: "inactive"
- Substance: "EGVTII"
  amyloid nucleation score: "inactive"
- Substance: "SCTVKLDCNAVDSVSMDDVD"
  amyloid nucleation score: "inactive"
- Substance: "WTRNTKLVEIIKMYYQNVNL"
  amyloid nucleation score: "inactive"
- Substance: "CLGLHQILM"
  amyloid nucleation score: "inactive"
- Substance: "SGTHNKVSTRMFGWNFI"
  amyloid nucleation score: 0.584
- Substance: "EIMYVLTIFSNVFVMFFS"
  amyloid nucleation score: -0.436
- Substance: "NLAAEASVLVYEDELGCRHG"
  amyloid nucleation score: "inactive"
- Substance: "DIQNFHQKTKGCLLFVWRRQ"
  amyloid nucleation score: "inactive"
- Substance: "CSNAGTCPCLCYRAILDQWV"
  amyloid nucleation score: -0.401
- Substance: "LIEDVYLWLCYHRVGYLSAS"
  amyloid nucleation score: "inactive"
- Substance: "NDTFNAK"
  amyloid nucleation score: "inactive"
- Substance: "MWLVFLTKQNYNNKVQTG"
  amyloid nucleation score: "inactive"
- Substance: "SGAQARDV"
  amyloid nucleation score: "inactive"
- Substance: "NFFVTFICAFEEAYMTKQLR"
  amyloid nucleation score: 2
- Substance: "FRSWPS"
  amyloid nucleation score: "inactive"
- Substance: "FAQYYDSVPIDEDTIQIVHI"
  amyloid nucleation score: "inactive"
- Substance: "KRWGEPYRMIVGYMVRYMVT"
  amyloid nucleation score: 2
- Substance: "YYFRAQADCFMYICVLDLDG"
  amyloid nucleation score: "inactive"
- Substance: "PFLYGRYFVAISNS"
  amyloid nucleation score: "inactive"
- Substance: "GSISLASWVVYSIAIR"
  amyloid nucleation score: "inactive"
- Substance: "VYFHSGSARFNTGTQL"
  amyloid nucleation score: "inactive"
- Substance: "KLDLQSSFLFLGSVHV"
  amyloid nucleation score: "inactive"
- Substance: "LYDDHFYDWQGYVRRRILDS"
  amyloid nucleation score: "inactive"
- Substance: "AYYNMK"
  amyloid nucleation score: -0.111
- Substance: "FLWGICWYRMVMKAHFDFIC"
  amyloid nucleation score: "inactive"
- Substance: "MVVIIFDWIPHLFNLYMYVI"
  amyloid nucleation score: "inactive"
- Substance: "MYCSTYTVFYYAGIRVLCGD"
  amyloid nucleation score: 1.28
- Substance: "GIRLIECS"
  amyloid nucleation score: "inactive"
- Substance: "LYAFICTTYTCVVN"
  amyloid nucleation score: "inactive"
- Substance: "IRFQSYRLASSSLVCDCVFC"
  amyloid nucleation score: 0.627
- Substance: "TNKASLFSPAEHIYGKS"
  amyloid nucleation score: "inactive"
- Substance: "FPMCFSFHLIGQ"
  amyloid nucleation score: "inactive"
- Substance: "FGVSIVRHQVLLCGLSCISL"
  amyloid nucleation score: 1.85
- Substance: "DLSTTLINPIEEQPYHFAVP"
  amyloid nucleation score: "inactive"
- Substance: "FIMRSSSC"
  amyloid nucleation score: "inactive"
- Substance: "GHWSEKSDGTNKSYVVRSGM"
  amyloid nucleation score: "inactive"
- Substance: "IPEYYKIRWRYGACRSCIVI"
  amyloid nucleation score: "inactive"
- Substance: "YRTARVSG"
  amyloid nucleation score: "inactive"
- Substance: "LYDCSINKQG"
  amyloid nucleation score: "inactive"
- Substance: "LLDSVDMLGFVMWVFGEVTN"
  amyloid nucleation score: "inactive"
- Substance: "QCKVCIMLYKGDLRANGWYG"
  amyloid nucleation score: 1.86
- Substance: "CVHYRFMLSRLYMILVPLTY"
  amyloid nucleation score: "inactive"
- Substance: "ANVHNTENLRGLILCRRLLH"
  amyloid nucleation score: "inactive"
- Substance: "YLLFMYFLLSSCCSLPALPM"
  amyloid nucleation score: 1.4
- Substance: "YRFTRKDSPSSKVKMISNSW"
  amyloid nucleation score: "inactive"
